Tested on: Wnt activity (Sp5-Luc reporter, Wnt-responsive promoter) in SW480 colon carcinoma cells
Test: Wnt activity screening assay: Sp5-Luc reporter gene assay in SW480 cells
Type: cell-based
Conditions: Homo sapiens, overnight incubation, 10-point curve starting from 10 μM
pEC50: −log10 of the molar value.
measured.quantity: pEC50

1) Fc1ccc(-c2cccc3[nH]c(-c4n[nH]c5ccc(-c6cncc(CN7CCCC7)c6)nc45)nc23)cc1 [Compound 42] | 5.97
2) Oc1cncc(-c2ccc3[nH]nc(-c4nc5c(N6CCCCC6)cccc5[nH]4)c3n2)c1 [Compound 613] | 5.81
3) COc1cccc(-c2cccc3[nH]c(-c4n[nH]c5ccc(-c6cncc(NC(=O)CC(C)(C)C)c6)nc45)nc23)c1 [Compound 1006] | 5.62
4) CN(C)CCNc1cc(F)cc(-c2cccc3[nH]c(-c4n[nH]c5ccc(-c6cncc(CNCC7CCCC7)c6)nc45)nc23)c1 [Compound 473] | 5.55
5) CN1CCN(c2cccc3[nH]c(-c4n[nH]c5ccc(-c6cncc(OC7CCCCC7)c6)nc45)nc23)CC1 [Compound 639] | 5.99

Data origin, for the record: patent US10392383B2
